biological target: pyruvate decarboxylase (ZmPDC) (Zymomonas mobilis); construct: N-terminal His6-tag, pET28a, overexpressed in E. coli; tetramer (dimer of dimers); test: coupled PDC/ADH assay (NADH, […] nm); time-course inactivation of apo-PDC and equilibrium competition with ThDP
Sequence (P06672 whole entry): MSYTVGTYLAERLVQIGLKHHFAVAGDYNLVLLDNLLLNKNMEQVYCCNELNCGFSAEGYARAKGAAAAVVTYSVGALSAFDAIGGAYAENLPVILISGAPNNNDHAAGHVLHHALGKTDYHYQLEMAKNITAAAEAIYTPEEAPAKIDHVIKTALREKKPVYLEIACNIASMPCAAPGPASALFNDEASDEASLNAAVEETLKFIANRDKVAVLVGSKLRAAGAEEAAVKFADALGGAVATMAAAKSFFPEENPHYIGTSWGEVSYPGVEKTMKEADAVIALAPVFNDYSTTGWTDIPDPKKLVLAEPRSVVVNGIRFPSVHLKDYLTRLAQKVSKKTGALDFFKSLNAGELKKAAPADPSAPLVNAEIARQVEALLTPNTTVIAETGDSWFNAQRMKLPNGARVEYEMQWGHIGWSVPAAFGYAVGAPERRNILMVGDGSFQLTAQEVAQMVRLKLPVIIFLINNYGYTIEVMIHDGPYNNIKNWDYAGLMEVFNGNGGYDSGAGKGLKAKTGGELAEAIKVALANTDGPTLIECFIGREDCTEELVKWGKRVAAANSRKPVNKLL
readout: pKi
Notebook: values listed as pKi are -log10 of the concentration (mol/L).

Recorded pKi of Cc1ncc(Cc2coc(CCOP(=O)(O)OP(=O)(O)O)c2)c(N)n1 [compound 17, furan analogue of ThDP] , please. 10.49
